B1: WW domain-containing transcription regulator protein 1, residues 116 to 162; numbered along this chain, Q9GZV5 (parent)
chain: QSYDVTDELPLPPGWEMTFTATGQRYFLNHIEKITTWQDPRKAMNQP

# Variants of: B1
# Experimental protocol: abundance fitness (aPCA) (normalised: wild type 0, dead -1); higher = more abundant; growth selection in yeast, the domain comes from the species named
# Measurement parameters: Homo sapiens
For each entry below, report its abundance fitness value.
Just the number, please, no unit attached.

## Task // abundance fitness lookup, key: V5H
## Result -0.231

## Task // abundance fitness lookup, key: G14E
## Result -0.21

## Task // abundance fitness lookup, key: Y3I
## Result 0.274

## Task // abundance fitness lookup, key: L9Y
## Result -0.035

## Task // abundance fitness lookup, key: P13C
## Result -0.222

## Task // abundance fitness lookup, key: F19E
## Result -0.017

## Task // abundance fitness lookup, key: F27H
## Result -0.707

## Task // abundance fitness lookup, key: V5I
## Result 0.029

## Task // abundance fitness lookup, key: F27A
## Result -0.777

## Task // abundance fitness lookup, key: G23P
## Result -0.827

## Task // abundance fitness lookup, key: M17T
## Result -0.094

## Task // abundance fitness lookup, key: P12W
## Result -0.826

## Task // abundance fitness lookup, key: T22A
## Result -0.092

## Task // abundance fitness lookup, key: D39E
## Result -0.536

## Task // abundance fitness lookup, key: F27P
## Result -0.946

## Task // abundance fitness lookup, key: L9V
## Result 0.05

## Task // abundance fitness lookup, key: T18P
## Result -0.85

## Task // abundance fitness lookup, key: P40C
## Result -0.92

## Task // abundance fitness lookup, key: W15H
## Result -0.876

## Task // abundance fitness lookup, key: L11P
## Result -0.556

## Task // abundance fitness lookup, key: A43G
## Result -0.013

## Task // abundance fitness lookup, key: I34H
## Result -0.324

## Task // abundance fitness lookup, key: L28A
## Result -0.143

## Task // abundance fitness lookup, key: D39Y
## Result -0.709

## Task // abundance fitness lookup, key: K33R
## Result -0.063

## Task // abundance fitness lookup, key: R25A
## Result -0.261

## Task // abundance fitness lookup, key: M44W
## Result -0.15

## Task // abundance fitness lookup, key: E32M
## Result 0.072

## Task // abundance fitness lookup, key: T22Q
## Result -0.141

## Task // abundance fitness lookup, key: Y3C
## Result 0.262

## Task // abundance fitness lookup, key: T35F
## Result -0.566

## Task // abundance fitness lookup, key: Q46S
## Result -0.053

## Task // abundance fitness lookup, key: G23S
## Result -0.565

## Task // abundance fitness lookup, key: N29I
## Result -0.949

## Task // abundance fitness lookup, key: L28N
## Result -0.446

## Task // abundance fitness lookup, key: N45T
## Result -0.044

## Task // abundance fitness lookup, key: A21E
## Result -0.002

## Task // abundance fitness lookup, key: A21Y
## Result -0.299

## Task // abundance fitness lookup, key: P10Q
## Result -0.123

## Task // abundance fitness lookup, key: T20Y
## Result -0.796

## Task // abundance fitness lookup, key: T35M
## Result -0.47

## Task // abundance fitness lookup, key: L28D
## Result -0.909

## Task // abundance fitness lookup, key: A43M
## Result -0.038

## Task // abundance fitness lookup, key: Q38S
## Result -0.109

## Task // abundance fitness lookup, key: A21H
## Result -0.108

## Task // abundance fitness lookup, key: Q46A
## Result -0.138

## Task // abundance fitness lookup, key: Q46T
## Result -0.058

## Task // abundance fitness lookup, key: T22N
## Result -0.086

## Task // abundance fitness lookup, key: Y26E
## Result -0.586

## Task // abundance fitness lookup, key: V5C
## Result -0.126

## Task // abundance fitness lookup, key: E8A
## Result -0.027

## Task // abundance fitness lookup, key: K33Y
## Result -0.733

## Task // abundance fitness lookup, key: P40Q
## Result -0.774

## Task // abundance fitness lookup, key: M17E
## Result 0.017

## Task // abundance fitness lookup, key: T36C
## Result -0.305

## Task // abundance fitness lookup, key: P13V
## Result -0.058

## Task // abundance fitness lookup, key: E8V
## Result -0.118

## Task // abundance fitness lookup, key: D4Q
## Result -0.404

## Task // abundance fitness lookup, key: Y26F
## Result -0.265

## Task // abundance fitness lookup, key: T6C
## Result -0.071

## Task // abundance fitness lookup, key: T36W
## Result -0.986

## Task // abundance fitness lookup, key: L9H
## Result -0.043

## Task // abundance fitness lookup, key: P13H
## Result -0.014

## Task // abundance fitness lookup, key: T35K
## Result -0.433

## Task // abundance fitness lookup, key: N45R
## Result -0.109

## Task // abundance fitness lookup, key: P40F
## Result -1.09

## Task // abundance fitness lookup, key: T35E
## Result -0.382

## Task // abundance fitness lookup, key: D7E
## Result -0.314

## Task // abundance fitness lookup, key: I34D
## Result -0.454

## Task // abundance fitness lookup, key: D4C
## Result 0.049

## Task // abundance fitness lookup, key: Y26V
## Result -0.322

## Task // abundance fitness lookup, key: Y26I
## Result -0.409
